Measured ID50 accompanies every entry in the list below.
species on record: Mus musculus; experiment: Toxicity against Swiss-Webster mouse assessed as irritation in ear per 5 ul after 4 hrs; assay type: organism-based; settings: in vivo, topical_or_ocular
measure: ID50 (µg)

[[record]]
compound = "CCCCCCCCCCCCCC(=O)O[C@@H]1[C@@H](C)[C@@]2(O)[C@@H](C=C(CO)C[C@]3(O)C(=O)C(C)=C[C@@H]23)[C@@H]2C(C)(C)[C@]12OC(C)=O [PHORBOL MYRISTATE ACETATE]"
measure = "ID50"
measurementunits = "µg"
relationsymbol = "="
quantitativereadout = 0.04

[[record]]
compound = "CC1=C[C@H]2[C@@]3(O)[C@H](C)[C@@H](OC(=O)c4ccccc4)[C@]4(OC(=O)c5ccccc5)[C@H]([C@@H]3C=C(CO)C[C@]2(O)C1=O)C4(C)C"
measure = "ID50"
measurementunits = "µg"
relationsymbol = "="
quantitativereadout = 0.6

[[record]]
compound = "CCC/C=C/C=C\\C(=O)O[C@@H]1[C@@H](C)[C@]2(O)[C@@H]3C=C(C)C(=O)[C@H]3CC(CO)=C[C@H]2[C@@H]2C(C)(C)[C@]12OC(C)=O"
measure = "ID50"
measurementunits = "µg"
relationsymbol = "="
quantitativereadout = 0.04

[[record]]
compound = "CCC/C=C/C=C\\C(=O)O[C@@H]1[C@@H](C)[C@]2(O)[C@@H]3C=C(C)C(=O)[C@@H]3CC(CO)=C[C@H]2[C@@H]2C(C)(C)[C@]12O"
measure = "ID50"
measurementunits = "µg"
relationsymbol = ">"
quantitativereadout = 100

